# Tested on: Bacillus subtilis
# EXPERIMENT NOTES: Effect on quorum sensing-mediated genetic competence in Bacillus subtilis expressing srfA-lacZ fusion assessed as maximum activity after 5 hrs by beta-galactosidase assay relative to ComXRO-E-2 pheromone
*1 amine or outer side, *2 acyl side, *3 side chain or, on linkers, in order; H or OH if unused. Where a SMILES comes first, the peptide text is derived from it. [ ]: non-standard residue; d: D form. X1 = C/C(=C\C[C@]12C[C@@H](C(=O)[*:2])N([*:1])[C@H]1Nc1ccccc12)CCCC(C)C; X3 = CC(C)=CC[C@]12C[C@@H](C(=O)[*:2])N([*:1])[C@H]1Nc1ccccc12
EXPERIMENTAL READOUT: Emax (%)

CC(C)=CCC/C(C)=C/C[C@]12C[C@@H](C(=O)N[C@@H](C)C(=O)O)N(C(=O)[C@@H](N)Cc3cc4ccccc4[nH]3)[C@H]1Nc1ccccc12	15
CC[C@H](C)[C@H](NC(=O)CN)C(=O)N[C@@H](Cc1ccccc1)C(=O)N1[C@H]2Nc3ccccc3[C@@]2(C/C=C(\C)CCCC(C)C)C[C@H]1C(=O)N[C@@H](CCC(=O)O)C(=O)N[C@@H](CCC(N)=O)C(=O)O (H-GIF[X1]EQ-OH)	75
CC(C)=CCC/C(C)=C/C[C@]12C[C@H]3C(=O)N[C@@H](Cc4ccccc4)C(=O)N3[C@H]1Nc1ccccc12	5

1. CC(C)=CCC/C(C)=C/C[C@]12C[C@@H](C(=O)N[C@@H](C)C(=O)O)N(C(=O)[C@@H]3CCCN3)[C@H]1Nc1ccccc12
2. CC(C)=CCC/C(C)=C/C[C@]12C[C@@H](C(=O)N[C@@H](CCC(=O)O)C(=O)O)N(C(=O)[C@H](C)N)[C@H]1Nc1ccccc12
Hi, I'm comparing two records. Which one has the lower Emax, 1 or 2 ? Select an item and report its label.
1

I. CC(C)=CCC/C(C)=C/C[C@]12C[C@@H](C(=O)N[C@@H](C)C(=O)O)N(C(=O)[C@@H](N)CC(N)=O)[C@H]1Nc1ccccc12
II. CC(C)=CCC/C(C)=C/C[C@]12C[C@@H](C(N)=O)N(C(=O)[C@@H](N)Cc3ccccc3)[C@H]1Nc1ccccc12
I'm curious whether I or II has the smaller Emax number. Which is it? Provide the label of your selected option as the answer.
I
(I: 5%, II: 35%)

I. CC[C@H](C)[C@H](NC(=O)CN)C(=O)N[C@@H](Cc1ccccc1)C(=O)N1[C@H]2Nc3ccccc3[C@@]2(CC=C(C)C)C[C@H]1C(=O)N[C@@H](CCC(=O)O)C(=O)N[C@@H](CCC(N)=O)C(=O)O (H-GIF[X3]EQ-OH)
II. CC(C)=CCC/C(C)=C/C[C@]12C[C@@H](C(=O)N[C@@H](C)C(=O)O)N(C(=O)[C@H](C)N)[C@H]1Nc1ccccc12
Quick check, higher Emax between I and II ? Give the label of your selection.
II

A. CC[C@H](C)[C@H](NC(=O)CN)C(=O)N[C@@H](Cc1ccccc1)C(=O)N1[C@H]2Nc3ccccc3[C@@]2(CCC(C)CCCC(C)C)C[C@H]1C(=O)N[C@@H](CCC(=O)O)C(=O)N[C@@H](CCC(N)=O)C(=O)O (mixture of isomers)
B. COC(=O)[C@@H]1C[C@]2(C/C=C(\C)CCC=C(C)C)c3ccccc3N[C@@H]2N1C(=O)[C@H](Cc1ccccc1)NC(C)=O
Which value of Emax is smaller, the one for A or the one for B ? Refer to your chosen item by its label in the answer.
B
(B: 10%, A: 40%)

Just for reference, ChEMBL document CHEMBL1795233 is where these values come from.
